Each entry below carries its reported slope.
# Target Or System: Alpha-2C adrenergic receptor (Homo sapiens)
# Assay Overview: modulators of alpha2C/GIRK thallium flux, primary screen, cell-based, HEK293 alpha2C/GIRK1/2 (AID 624);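 also: slope of fluorescence ratio to pre-addition baseline per second over 15 to 24 s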
# Assay Context: thallium flux BTC fluorescence, at 10 µM, actives lie on both sides
Could you respond with only the numeric value?

compound=CC(C)OC(=O)c1nn2c(C(F)(F)F)cc(-c3ccc(Br)o3)nc2c1Br target_or_system="Alpha-2C adrenergic receptor (Homo sapiens)" reported=0.00144

Prompt: # query: slope of entry "OCCN(CCO)c1nc(N2CCCCC2)c2nc(N(CCO)CCO)nc(N3CCCCC3)c2n1"
Completion: 0

Prompt: Which measured slope value corresponds to "N/C(=N\c1nc2ccccc2o1)NC(=O)c1ccccc1NC(=O)c1ccccc1" ?
Completion: 0.0114

Prompt: Query: slope; subject: O=C1NC2c3ccccc3C(=O)N2c2c1cnn2-c1ccccc1 (stereo unspecified)
Completion: 0.00503

Prompt: Returns the measured slope for the input compound. Input: CC1=CC(c2ccccc2)n2nc(N3C(=O)C4CC=CCC4C3=O)nc2N1 (stereo unspecified)
Completion: 0.00753

Prompt: # input compound: "COc1ccccc1-n1cnc2cc(NS(=O)(=O)c3ccccc3)ccc21" ; wanted: its slope
Completion: 0.00351

Prompt: Name the reported slope value associated with the compound CC(=O)OC(C)C[N+](C)(C)C (stereo unspecified)
Completion: 0.0149

Prompt: Consider the compound shown here: "CC(C)Cn1cnc2c(c1=O)c1nc3ccccc3nc1n2Cc1ccc2c(c1)OCO2" What is its recorded slope?
Completion: 0.00801

Prompt: # get_value(readout='slope', item= "Nc1nnc(CSc2ccc(Cl)cc2)s1" )
Completion: 0.00734

Prompt: Entry COc1ccccc1N1C(=O)C2ON(c3ccccc3)C(c3ccc(N(C)C)cc3)C2C1=O (stereo unspecified) : reported slope = ?
Completion: 0.00352

Prompt: If you can, please state the reported slope value of "NC(=O)CSc1c[nH]c2ccccc12" .
Completion: 0.00438

---

In this section, each of the compounds is paired with its reported inhibition.
# Assay Overview: inhibitors of poly I:C-induced TLR3 signaling, primary screen, cell-based, poly I:C stimulus, luciferase, 10K MLSCN set (AID 602277)
# Assay Context: HEK293-TLR3 RL24 IRF3 luciferase reporter, at 10 µM, stronger effect = higher value
Give the number; % is assumed, so skip it.

The examples below pair each entry with its known result.
compound=COC(=O)CCC(=O)CN quantity_measured=inhibition unit_text=% reported=25.1
compound=CC(=Nc1ccc(C)c(C)c1)C1=C(O)CCC1=O quantity_measured=inhibition unit_text=% reported=-35.9
compound="CC(C(=O)O)c1ccc(-c2ccccc2)c(F)c1 (stereo unspecified)" quantity_measured=inhibition unit_text=% reported=42.9
compound=COc1ccc2c(C)nc(Nc3nc(C)cc(C)n3)nc2c1 quantity_measured=inhibition unit_text=% reported=20
compound=Nc1nc(N)c2nc(-c3ccccc3)c(N)nc2n1 quantity_measured=inhibition unit_text=% reported=34.5

Then this compound:
Prompt: What value of measured inhibition is listed for CCOC(=O)C1/C(=N\O)CC(C)(O)C(C(=O)OCC)C1c1ccc(N(C)C)cc1 (stereo unspecified) ?
Completion: 16

---

The entries below come with measured z-score values attached.
# Assay Overview: DUSP6 inhibitors restoring Erk phosphorylation by chemical complementation, primary imaging in DUSP6-transfected HeLa (AID 609)
# Assay Context: HeLa MKP-3 transfected, phospho-Erk imaging KS statistic; measured here: nuclear c-Myc green intensity z-score; at 10 µM; cells stimulated with TPA for 15 min
Write the value as a bare number.

Illustrative cases are given below, each with its answer.
compound=Cn1c(SCC(=O)N2CCOCC2)nnc1-c1ccc(Cl)cc1Cl reported=-0.186
compound="CN1C(=O)c2c(sc3c2CCCC3)NC1c1ccccc1O (configuration not stated)" reported=-1.82
compound=COC(=O)COn1c(SCC(=O)OC)nc2ccccc2c1=O reported=0.261

Prompt: Param item = "CCc1c(C)c(C#N)c2nc3ccccc3n2c1-n1nc(C)cc1C" ; retrieve measured z-score.
Completion: 1.4

Prompt: Give its z-score value. Item: CN(C)c1ccc(C=NCC2(O)CCOC(C)(C)C2)cc1 (configuration not stated)
Completion: -0.94

Prompt: For the compound shown here, "CCOC(=O)CCc1c(C)c(C#N)c2nc3ccccc3n2c1-n1ccnc1" , give the reported z-score.
Completion: -0.305

Prompt: z-score lookup needed for COc1cccc(/C(O)=C2/C(=O)C(=O)N(CCCN(C)C)C2c2cccc(Cl)c2)c1 (configuration not stated) , thanks.
Completion: -0.754

Prompt: // returns reported z-score for input "Cc1nn(-c2ccccc2)c2c1C(=O)NC(=O)C(C)(C)C2"
Completion: 1.24
